target_or_test_system: Inositol hexakisphosphate kinase 1 (Homo sapiens) (UniProt Q92551)
Sequence (Q92551 whole entry, looked up): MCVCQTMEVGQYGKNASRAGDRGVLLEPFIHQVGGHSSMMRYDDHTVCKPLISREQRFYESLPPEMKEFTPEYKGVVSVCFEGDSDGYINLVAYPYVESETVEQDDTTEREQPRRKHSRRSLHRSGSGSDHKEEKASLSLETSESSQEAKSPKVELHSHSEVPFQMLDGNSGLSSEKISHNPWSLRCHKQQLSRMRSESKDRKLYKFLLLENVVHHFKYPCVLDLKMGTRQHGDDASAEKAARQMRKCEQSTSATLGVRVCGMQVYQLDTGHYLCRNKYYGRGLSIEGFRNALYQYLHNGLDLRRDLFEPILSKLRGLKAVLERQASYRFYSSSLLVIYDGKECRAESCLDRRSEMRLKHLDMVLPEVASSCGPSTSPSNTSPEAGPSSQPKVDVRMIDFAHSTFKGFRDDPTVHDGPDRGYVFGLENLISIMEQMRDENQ
assay_method_text: Primary qHTS assay for small molecule inhibitors of Inositol hexaphosphate kinase 1 (IP6K1); note: series mostly up to about 58 µM; % is set by controls: 0 for no effect and ±100 for the full control effect
test_settings: ADP-Glo luminescence, 2 h, hits give low values
The whole screen tested about 140,000 compounds, of which about 1,200 (0.86%) were called active. The full list was thinned out, with actives kept by preference.
parameter_measured: activity change (%)

COc1ccc2ncc3c(-c4ccc(C)c(C)c4)nn(CC(=O)NC4CCCC4)c3c2c1
-25.8
CC(C)OCCCNC(=O)c1cc(-c2ccc(C(F)(F)F)cc2)nc2c1cnn2C
-2.02
O=c1cc(-c2cccnc2)oc2c(-c3ccccc3O)nccc12
-32.5
O=c1cc(-c2ccccn2)oc2c(-c3ccccc3F)nccc12
-14.4
Cc1ccccc1C(=O)N1CCCC(C(=O)N2CCC(c3ccccc3)CC2)C1 (stereo not given)
-2.33
